Molecular target: Mcl-1/Bim interaction (Homo sapiens (Human), UniProt Q07820)
Sequence (Q07820 171-327): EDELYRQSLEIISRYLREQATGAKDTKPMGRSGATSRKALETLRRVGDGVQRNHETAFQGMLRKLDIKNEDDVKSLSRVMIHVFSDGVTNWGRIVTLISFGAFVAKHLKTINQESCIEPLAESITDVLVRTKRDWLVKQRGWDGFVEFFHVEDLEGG
Assay: Cell Free Mcl-1: Bim Affinity Assay (Mcl-1 HTRF)
Conditions: TR-FRET, recombinant human Mcl-1(171-327), biotin-Bim(51-76); read-out: Mel-1 HTRF IC50
pIC50: −log10 of the molar value.
MEASURED_QUANTITY: pIC50

- C[C@H]1CCC[C@H]([C@H]2OC[C@@H](N(C)C)CO2)[C@@H]2CC[C@H]2CN2C[C@@]3(CCCc4cc(Cl)ccc43)COc3ccc(cc32)C(=O)NS(=O)(=O)C1 (stereo in doubt) [Example 78]: 8.55

a: CCN[C@H]1CO[C@H]([C@H]2CCC[C@H](C)[C@@H](C)S(=O)(=O)NC(=O)c3ccc4c(c3)N(C[C@@H]3CC[C@H]32)C[C@@]2(CCCc3cc(Cl)ccc32)CO4)OC1 [Example 27]
b: C[C@@H]1[C@@H](C)CCC[C@H]([C@H]2O[C@H]3CNC[C@H]3O2)[C@@H]2CC[C@H]2CN2C[C@@]3(CCCc4cc(Cl)ccc43)COc3ccc(cc32)C(=O)NS1(=O)=O (stereo in doubt) [Example 15]
Problem: Response body: label of entry with the larger pIC50; valid values a , b . // caller expects the label of the chosen entry
Solution: a
